Source listed as patent US9226916B2.

- tested.target: recombinant human NK3 receptor (Homo sapiens)
- Construct: expressed in transfected cells; host or cells: HEK293 cells, transient expression; membranes
- test.protocol: [3H]SR142801 competition binding assay
experimental.readout: Ki (nM)
Write the value in nM as a bare number.

Study these solved cases before continuing.
| compound | experimental.readout | unit.tag | endpoint.value |
| --- | --- | --- | --- |
| CN(C(=O)Oc1ccc(F)cc1)[C@@H]1CN(C(=O)C2CCN(C(=O)c3ccc(C(F)(F)F)cn3)CC2)C[C@H]1c1ccc(Cl)cc1 [Example 261] | Ki | nM | 18.9 |
| CN(C(=O)OC1CC(F)(F)C1(F)F)[C@@H]1CN(C(=O)C2CCN(c3ccc(C#N)cn3)CC2)C[C@H]1c1ccc(Cl)cc1 (some centres unmarked) [Example 176] | Ki | nM | 4.6 |
| CN(C(=O)Oc1ccc(F)cc1)[C@H]1CN(C(=O)[C@H]2CC[C@@](C)(O)CC2)C[C@@H]1c1ccc(Cl)c(Cl)c1 (racemic) [Example 53] | Ki | nM | 4.7 |
| CN(C(=O)OCC1CCCC1)[C@H]1CN(C(=O)C2CCN(C(=O)C3(C)CC3)CC2)C[C@@H]1c1ccc(Cl)c(Cl)c1 (racemic) [Example 32] | Ki | nM | 1.4 |

Attention now shifts to the item below.
Q. Would you mind telling me what Ki value was observed for CN(C(=O)OC(c1ccc(F)cc1)C1CC1)[C@@H]1CN(C(=O)C2CCN(c3ccc(C#N)cn3)CC2)C[C@H]1c1ccc(Cl)cc1 (some centres unmarked) [Example 239] ?
A. 61.6

----------
The following compounds are shown together with reported pKi values.
- tested.target: recombinant human NK3 receptor (Homo sapiens, UniProt P29371)
- Construct: expressed in transfected cells; host or cells: HEK293 cells, transient expression; membranes
- Sequence (P29371 whole entry): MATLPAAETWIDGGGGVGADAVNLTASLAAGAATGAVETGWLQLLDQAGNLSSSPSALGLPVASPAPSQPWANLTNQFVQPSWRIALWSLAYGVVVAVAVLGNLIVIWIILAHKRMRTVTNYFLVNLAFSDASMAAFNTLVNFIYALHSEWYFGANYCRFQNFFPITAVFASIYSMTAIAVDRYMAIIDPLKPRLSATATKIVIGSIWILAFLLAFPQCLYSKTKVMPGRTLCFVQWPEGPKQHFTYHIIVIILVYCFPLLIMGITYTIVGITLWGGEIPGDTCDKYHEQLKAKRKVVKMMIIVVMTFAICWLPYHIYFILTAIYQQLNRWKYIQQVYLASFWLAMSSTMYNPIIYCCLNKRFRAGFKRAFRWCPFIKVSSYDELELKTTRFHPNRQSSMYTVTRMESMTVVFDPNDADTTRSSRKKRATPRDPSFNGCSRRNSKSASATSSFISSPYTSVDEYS
- test.protocol: [3H]SR142801 competition binding assay
Interpret pKi as the negative base-10 log of the concentration measured in mol/L.

Study these solved cases before continuing.
| compound | experimental.readout | endpoint.value |
| --- | --- | --- |
| CN(C(=O)Oc1ccc(F)cc1)[C@@H]1CN(C(=O)C2CCN(C(=O)CC#N)CC2)C[C@H]1c1ccc(Cl)cc1 [Example 253] | pKi | 8.74 |
| COC1CC(C(=O)N2C[C@@H](N(C)C(=O)Oc3ccc(F)cc3)[C@H](c3ccc(Cl)cc3)C2)C1 (stereo partly shown) [Example 149] | pKi | 7.04 |
| Cc1ccc(N2CCC(C(=O)N3C[C@@H](N(C)C(=O)O[C@H]4CC[C@H](C(F)(F)F)CC4)[C@H](c4ccc(Cl)c(Cl)c4)C3)CC2)nn1 [Example 160] | pKi | 9.30 |
| CN(C(=O)Oc1ccc(Cl)cn1)[C@@H]1CN(C(=O)C2CCN(c3ccc(C#N)cn3)CC2)C[C@H]1c1ccc(Cl)cc1 [Example 244] | pKi | 7.68 |
| CN(C(=O)Oc1ccc(F)cc1)[C@@H]1CN(C(=O)C2CCN(c3cccc(C#N)n3)CC2)C[C@H]1c1ccc(Cl)cc1 [Example 189] | pKi | 8.46 |

Q. Would you mind telling me what pKi value was observed for COC1CC(C(=O)N2CCC(C(=O)N3C[C@@H](N(C)C(=O)Oc4ccc(F)cc4)[C@H](c4ccc(Cl)cc4)C3)CC2)C1 (stereo partly shown) [Example 251] ?
A. 8.66

Q. Would you mind telling me what pKi value was observed for Cc1cccc(OC(=O)N(C)[C@@H]2CN(C(=O)C3CCN(c4ccc(C#N)cn4)CC3)C[C@H]2c2ccc(Cl)cc2)c1 [Example 230] ?
A. 8.57

Q. Would you mind telling me what pKi value was observed for CC(=O)c1ccc(N2CCC(C(=O)N3C[C@@H](N(C)C(=O)Oc4ccc(F)cc4)[C@H](c4ccc(F)c(Cl)c4)C3)CC2)nc1 [Example 318] ?
A. 9.15

Q. Would you mind telling me what pKi value was observed for CN(C(=O)Oc1ccc(F)cc1)[C@@H]1CN(C(=O)C2CCC(CO)CC2)C[C@H]1c1ccc(Cl)cc1 (stereo partly shown) [Example 116] ?
A. 8.00

Q. Would you mind telling me what pKi value was observed for CN(C(=O)Oc1ccc(F)cc1)[C@@H]1CN(C(=O)C2CCN(C(=O)C3(C)CC3)CC2)C[C@H]1c1ccc(Cl)c(Cl)c1 [Example 6] ?
A. 9.30

Q. Would you mind telling me what pKi value was observed for CN(C(=O)Oc1ccccc1)[C@H]1CN(C(=O)C2CCN(C(=O)C3(C)CC3)CC2)C[C@@H]1c1ccc(Cl)c(Cl)c1 (racemic) [Example 13] ?
A. 8.70

Q. Would you mind telling me what pKi value was observed for CN(C(=O)Oc1ccc(C#N)cc1F)[C@@H]1CN(C(=O)C2CCN(c3ccc(C#N)cn3)CC2)C[C@H]1c1ccc(Cl)cc1 [Example 237] ?
A. 9.40

Q. Would you mind telling me what pKi value was observed for CN(C(=O)Oc1ccc(C(F)(F)F)cc1)[C@@H]1CN(C(=O)C2CCN(c3ccc(C#N)cn3)CC2)C[C@H]1c1ccc(Cl)cc1 [Example 207] ?
A. 9.22
